# target-of-assay: PCP hydroxylase (Sphingobium chlorophenolicum, UniProt P42535)
# Sequence (P42535 whole entry): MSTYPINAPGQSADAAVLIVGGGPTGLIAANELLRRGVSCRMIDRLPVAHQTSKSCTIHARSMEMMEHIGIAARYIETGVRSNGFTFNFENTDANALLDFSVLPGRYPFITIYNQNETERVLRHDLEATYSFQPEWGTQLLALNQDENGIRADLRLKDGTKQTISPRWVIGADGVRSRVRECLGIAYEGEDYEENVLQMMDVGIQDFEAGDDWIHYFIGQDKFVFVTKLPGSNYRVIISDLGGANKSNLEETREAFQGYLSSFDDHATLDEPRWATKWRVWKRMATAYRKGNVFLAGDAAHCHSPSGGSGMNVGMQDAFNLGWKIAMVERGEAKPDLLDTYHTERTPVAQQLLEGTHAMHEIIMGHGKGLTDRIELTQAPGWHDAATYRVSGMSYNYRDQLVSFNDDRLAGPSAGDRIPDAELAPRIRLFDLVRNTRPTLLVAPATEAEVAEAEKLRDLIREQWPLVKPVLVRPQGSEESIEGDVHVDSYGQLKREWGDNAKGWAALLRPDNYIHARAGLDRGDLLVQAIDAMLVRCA
# experimental-details: Hydrogen peroxide assay
# Type: biochemical
# test-conditions: 100 μM substrate, 160 μM NADPH
Entries and their log10(H2O2 appearance)
Log scale reminder: H2O2 appearance in s⁻¹, then log10 taken.

**Q:** Entry under review: Oc1cc(Cl)cc(Cl)c1 . Reported log10(H2O2 appearance)?
**A:** -2.54

###

# target-of-assay: PCP hydroxylase (Sphingobium chlorophenolicum, UniProt P42535)
# Type: biochemical
# test-conditions: 100 μM substrate, 160 μM NADPH
measured-property: log10 NADPH disappearance (log10 of the value in s⁻¹)
Log scale reminder: NADPH disappearance in s⁻¹, then log10 taken.

// solved cases for log10 NADPH disappearance follow
**Q:** I'm curious: which log10 NADPH disappearance was measured for Oc1ccc(Cl)c(Cl)c1 tested on PCP hydroxylase (Sphingobium chlorophenolicum, UniProt P42535)?
**A:** -2.35

**Q:** I'm curious: which log10 NADPH disappearance was measured for Oc1c(Cl)c(Cl)cc(Cl)c1Cl tested on PCP hydroxylase (Sphingobium chlorophenolicum, UniProt P42535)?
**A:** -0.95

**Q:** I'm curious: which log10 NADPH disappearance was measured for Oc1c(Cl)cccc1Cl tested on PCP hydroxylase (Sphingobium chlorophenolicum, UniProt P42535)?
**A:** -1.29

More entries:
**Q:** I'm curious: which log10 NADPH disappearance was measured for Oc1cc(Cl)c(Cl)c(Cl)c1 tested on PCP hydroxylase (Sphingobium chlorophenolicum, UniProt P42535)?
**A:** -1.92

**Q:** I'm curious: which log10 NADPH disappearance was measured for Oc1cc(Cl)cc(Cl)c1 tested on PCP hydroxylase (Sphingobium chlorophenolicum, UniProt P42535)?
**A:** -2.10
